For each entry below, report its pKd value.
molecular target: T1, Programmed cell death protein 1 (PD-1), human (human, UniProt Q15116 25-167, limits assumed); assay: SPR on PD-1, sensorgrams at five concentrations with fit
T1 construct: also called full-length PD-1
T1 sequence (Q15116 25-167 limits assumed): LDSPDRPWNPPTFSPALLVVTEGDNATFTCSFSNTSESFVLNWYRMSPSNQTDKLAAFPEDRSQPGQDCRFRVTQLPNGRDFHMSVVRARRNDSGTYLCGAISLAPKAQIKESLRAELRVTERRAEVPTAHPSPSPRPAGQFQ
Numbers only, as −log10 of the molar value.

>>> observed_value("E2-B5-6_201 (antibody, V domains shown) VH: EVQLVQSGAEVKKPGATVKISCKASGYSLSDHYMHWVQQAPGKGLEWMGRIDPHSGATKYDPKFQGRVTITADTSTDTAYMELSSLRSEDTAVYYCARSGPVHYYGSSYVMDYWGQGTTVTVSS VL: DIVMTQSPDSLAVSLGERATINCKSGQSVFYSSNNKNYLAWYQQKPGQPPKLLIYWASTRESGVPDRFSGSGSGTDFTLTISSLQAEDVAVYYCQQYLYSWTFGQGTKLEIK")
9.15

Below is a list of binders. For each, state its recorded pKd.
1. E2-B5-7_201 (antibody, V domains shown) VH: EVQLVQSGAEVKKPGATVKISCKASGYSLSDHYMHWVQQAPGKGLEWMGRIDPHSGATKYDPKFQGRVTITADTSTDTAYMELSSLRSEDTAVYYCARSGPVYHYGSSYVMDYWGQGTTVTVSS VL: DIVMTQSPDSLAVSLGERATINCKSGQSVFYSSNNKNYLAWYQQKPGQPPKLLIYWASTRESGVPDRFSGSGSGTDFTLTISSLQAEDVAVYYCQQYLYSWTFGQGTKLEIK
2. E2-B5-7_211 (antibody, V domains shown) VH: EVQLVQSGAEVKKPGATVKISCKASGYSLSDHYMHWVQQAPGKGLEWMGRIDPHSGATKYDPKFQGRVTITADTSTDTAYMELSSLRSEDTAVYYCARSGPVYHYGSSYVMDYWGQGTTVTVSS VL: DIVMTQSPDSLAVSLGERATINCKSGQSVFYSSNNKNYLAWYQQKPGQPPKLLIYWADTRESGVPDRFSGSGSGTDFTLTISSLQAEDVAVYYCQQYLYSWTFGQGTKLEIK
3. D4-A7-7_201 (antibody, V domains shown, also called clone D4-A7-7_201) VH: EVQLVQSGAEVKKPGATVKISCKASGYILTDHYMHWVQQAPGKGLEWMGRIDPHSGGIKYDPKFQGRVTITADTSTDTAYMELSSLRSEDTAVYYCARSGPVYHYGSSYVMDYWGQGTTVTVSS VL: DIVMTQSPDSLAVSLGERATINCKSGQSVFYSSNNKNYLAWYQQKPGQPPKLLIYWASTRESGVPDRFSGSGSGTDFTLTISSLQAEDVAVYYCQQYLYSWTFGQGTKLEIK

8.92
9.16
8.96
